Origin of the recorded values: patent US20210155689A1

study system: T1, hFc tagged monkey LAG-3 protein (cLAG-3-hFc protein) (monkey; human)
T1 construct: Made in HEK293 cells; also called monkey LAG-3 extracellular domain protein; not shown: human IgG Fc fragment (hFc) of the pCpC vector
T1 chain: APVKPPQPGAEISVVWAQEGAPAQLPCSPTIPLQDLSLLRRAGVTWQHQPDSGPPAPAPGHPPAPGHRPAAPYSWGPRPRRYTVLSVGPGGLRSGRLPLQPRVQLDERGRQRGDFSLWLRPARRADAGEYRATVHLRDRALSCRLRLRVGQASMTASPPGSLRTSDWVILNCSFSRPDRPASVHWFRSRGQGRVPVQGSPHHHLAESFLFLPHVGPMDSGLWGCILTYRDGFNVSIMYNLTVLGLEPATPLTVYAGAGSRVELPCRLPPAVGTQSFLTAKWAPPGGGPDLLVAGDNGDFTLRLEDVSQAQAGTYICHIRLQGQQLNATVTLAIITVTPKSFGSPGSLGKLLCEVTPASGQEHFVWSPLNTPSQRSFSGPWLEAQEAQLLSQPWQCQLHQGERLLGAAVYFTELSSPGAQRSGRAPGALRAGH
experimental details: ELISA, cLAG-3-hFc coated; 0.0007 nM
test readout: OD450 (OD450)
Field format: number, assumed OD450, no unit text.

Query (binder): 409D4E10 (LAG-3 mouse-human chimeric antibody) (antibody, V domains shown) VH: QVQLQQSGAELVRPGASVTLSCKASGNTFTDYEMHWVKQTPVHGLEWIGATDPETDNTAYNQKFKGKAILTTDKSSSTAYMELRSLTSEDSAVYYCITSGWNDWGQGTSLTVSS VL: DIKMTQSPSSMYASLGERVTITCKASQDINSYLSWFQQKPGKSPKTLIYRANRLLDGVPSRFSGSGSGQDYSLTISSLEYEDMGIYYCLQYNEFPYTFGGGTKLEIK ; field requested: OD450 0.27

# lookup: OD450 of 405B8H3 (LAG-3 mouse-human chimeric antibody) (antibody, V domains shown, also called mouse-human chimeric antibody 405B8H3) VH: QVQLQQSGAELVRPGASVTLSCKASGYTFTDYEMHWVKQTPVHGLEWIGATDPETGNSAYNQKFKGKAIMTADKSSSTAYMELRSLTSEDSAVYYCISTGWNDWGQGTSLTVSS VL: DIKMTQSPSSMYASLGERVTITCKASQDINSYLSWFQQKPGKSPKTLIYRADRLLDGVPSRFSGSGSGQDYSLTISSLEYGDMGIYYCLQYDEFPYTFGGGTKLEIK 0.21

Quick check: OD450 of 409B11E12 (LAG-3 mouse-human chimeric antibody) (antibody, V domains shown) VH: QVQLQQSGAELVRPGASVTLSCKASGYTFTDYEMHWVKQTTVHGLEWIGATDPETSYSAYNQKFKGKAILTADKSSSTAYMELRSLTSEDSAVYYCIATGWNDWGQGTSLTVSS VL: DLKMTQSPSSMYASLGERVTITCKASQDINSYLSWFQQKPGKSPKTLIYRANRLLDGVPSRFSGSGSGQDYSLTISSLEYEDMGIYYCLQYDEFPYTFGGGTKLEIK ? 0.17

I would be grateful if you could share the reported OD450 for 556F6B8 (LAG-3 mouse-human chimeric antibody) (antibody, V domains shown, also called 556F8B8) VH: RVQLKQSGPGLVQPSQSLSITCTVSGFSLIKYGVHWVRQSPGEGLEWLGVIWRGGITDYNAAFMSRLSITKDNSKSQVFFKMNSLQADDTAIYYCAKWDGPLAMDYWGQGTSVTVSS VL: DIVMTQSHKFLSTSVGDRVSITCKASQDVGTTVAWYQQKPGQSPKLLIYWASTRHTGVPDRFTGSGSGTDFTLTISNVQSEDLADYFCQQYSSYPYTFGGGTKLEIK . 0.21

Any idea what its OD450 is? The binder is 105F1E10 (LAG-3 mouse-human chimeric antibody) (antibody, V domains shown) VH: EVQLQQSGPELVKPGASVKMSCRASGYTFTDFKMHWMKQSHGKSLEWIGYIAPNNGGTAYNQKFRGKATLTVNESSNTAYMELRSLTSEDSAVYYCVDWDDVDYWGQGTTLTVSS VL: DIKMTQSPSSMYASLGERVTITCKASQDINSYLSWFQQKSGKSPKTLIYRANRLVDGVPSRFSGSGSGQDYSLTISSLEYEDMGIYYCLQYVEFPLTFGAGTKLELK 0.16
